# ASSAY_PROCEDURE: collision cross section of modified peptide (TIMS, N2, iRT-aligned); higher = larger / more extended gas-phase ion
# EXPERIMENTAL_CONDITIONS: charge state: 2; modification: Hydroxyproline
MEASURED_ATTRIBUTE: collision cross section (Å²)
Give just the numeric value; Å² need not be written.

- RESIDUE_STRING: "DYQPGITFIVVQK [_DYQP(Hydroxyproline)GITFIVVQK_]"
  collision cross section [Å²]: 402.94
- RESIDUE_STRING: "GPPGPPGR [_GPPGPP(Hydroxyproline)GR_]"
  collision cross section [Å²]: 291.03
- RESIDUE_STRING: "GDKGDAGEPGR [_GDKGDAGEP(Hydroxyproline)GR_]"
  collision cross section [Å²]: 331.51
- RESIDUE_STRING: "GERGFPGYPGPK [_GERGFP(Hydroxyproline)GYPGPK_]"
  collision cross section [Å²]: 370.65
- RESIDUE_STRING: "GLPGEPGPRGLLGPK [_GLPGEP(Hydroxyproline)GPRGLLGPK_]"
  collision cross section [Å²]: 409.23
- RESIDUE_STRING: "VGYPGPSGPLGARGIPGIK [_VGYP(Hydroxyproline)GPSGPLGARGIPGIK_]"
  collision cross section [Å²]: 446.49

Entry GDTGLPGPQGIPGGVGSPGR [_GDTGLPGPQGIP(Hydroxyproline)GGVGSPGR_] has what collision cross section?
430.06

The values you see were collected from the supplement of paper PMC10598134.
